# protocol.notes: Bidirectional assay across Caco-2 cell monolayers
# condition.notes: human
metric: Papp A→B at 120 min, 10 μM

Task: Quick one: Papp A→B at 120 min, 10 μM for O=c1[nH]c2ccccc2n1C1CCN(CCCC(c2ccc(F)cc2)c2ccc(F)cc2)CC1 [Pimozide] ?
Result: 1.64 ×10⁻⁶ cm/s

###

# protocol.notes: Bidirectional assay across Caco-2 cell monolayers
# condition.notes: human
metric: Papp B→A at 120 min, 10 μM (×10⁻⁶ cm/s)
Number only, in ×10⁻⁶ cm/s; omit the unit.

Task: Quick one: Papp B→A at 120 min, 10 μM for O=c1[nH]c2ccccc2n1C1CCN(CCCC(c2ccc(F)cc2)c2ccc(F)cc2)CC1 [Pimozide] ?
Result: 0.35
